TESTED TARGET: T1, recombinant protein PD-L1-His (human, UniProt Q9NZQ7 19-238)
T1 construct: also called PD-L1-his fusion protein; human PDL1-his protein
T1 sequence (Q9NZQ7 19-238 limits assumed): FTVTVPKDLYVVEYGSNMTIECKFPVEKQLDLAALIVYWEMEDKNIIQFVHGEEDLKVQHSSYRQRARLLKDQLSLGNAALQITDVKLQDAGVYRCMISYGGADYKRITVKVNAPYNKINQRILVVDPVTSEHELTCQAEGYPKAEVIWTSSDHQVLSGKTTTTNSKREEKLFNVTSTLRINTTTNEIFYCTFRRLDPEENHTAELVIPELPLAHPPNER
PROCEDURE TEXT: competitive ELISA, PDL1-his coated, competitor PD1-Fc 50 µg/mL
# Lookup of reported IC50 keyed by entry
Field format: number, assumed µg/mL, no unit text.

BINDER | IC50, µg/mL
PDL1-1 (VHH, Alpaca nanobody expressed in E. coli, purified on HisTrap and detected with anti-His antibody; also called PD-L1-1 heavy chain single-domain antibody; P1) VHH: QVQLQESGGGLVQPGGSLTLSCAASGFTVSNSAVSWARQAPGKGLEWVSLIDSNRNTVYAQSVRGRFTISRDNVKNTVYLQMNSLKPEDTAVYYCAKGIWGSTLTGQGTQVTVSS | 5.8

Field: next binder
Incoming: Please give the measured IC50 for this binder: PDL1-1v19 (VHH, Humanized PDL1-1, His-tagged) VHH: QVQLVESGGGLVKPGGSLRLSCAASGFTVSNSAVSWARQAPGKGLEWVSLIDSNRNTVYAQSVRGRFTISRDNAKNSVYLQMNSLRAEDTAVYYCAKGIWGSTLWGQGTQVTVSS
Outgoing: 18.8
